# System: HL-60(TB) leukemia
# ASSAY_METHOD_TEXT: NCI tumour cell line growth inhibition, 48 h
Listed compounds paired with reported TGI

COMPOUND: CC1(C)OC(CP(c2ccccc2)c2ccccc2)C(CP(c2ccccc2)c2ccccc2)O1 (stereo not drawn)
SIGN_QUALIFIER: =
TGI, µM: 1.84
--
COMPOUND: Cc1c(C(=O)CC(=O)C(=O)Nc2ccc(Cl)cc2)[n+](=O)c2ccccc2n1[O-]
SIGN_QUALIFIER: >
TGI, µM: 100
--
COMPOUND: CC1(c2cccc(Cl)c2)CC(c2cccc(Cl)c2)=C(C#N)C(=C(C#N)C#N)N1 (stereo not drawn)
SIGN_QUALIFIER: =
TGI, µM: 46.2
--
COMPOUND: Cc1ccc(NC(=O)C(=O)CC(=O)c2c(C)n([O-])c3ccccc3[n+]2=O)cc1
SIGN_QUALIFIER: =
TGI, µM: 48.6
--
COMPOUND: CC1OC(OC2C(OC(=O)[C@@H]3CC(C)(C)C[C@@H]4C5=CC[C@@H]6[C@@]7(C)C[C@H](O)[C@H](OC8OC(CO)C(O)C(O)C8O)[C@@](C)(CO)C7[C@H](O)C[C@@]6(C)[C@]5(C)C[C@@H](O)[C@H]43)OCC(O)C2O)C(O)C(O)C1O (stereo partly drawn)
SIGN_QUALIFIER: >
TGI, µM: 15
--
COMPOUND: CC(C)(C)OC(=O)N1CCC2(C)CC(=O)CC=C12 (stereo not drawn)
SIGN_QUALIFIER: >
TGI, µM: 100
--
COMPOUND: COc1ccc(C(=O)O)c2c(=O)c3cccnc3[nH]c12
SIGN_QUALIFIER: >
TGI, µM: 100
--
COMPOUND: O=C(Nc1ccc2[nH]c(=S)sc2c1)Nc1ccccc1F
SIGN_QUALIFIER: =
TGI, µM: 93.5
